- target-or-system: hPAOX (Homo sapiens (Human), UniProt Q6QHF9)
- Sequence (Q6QHF9 whole entry): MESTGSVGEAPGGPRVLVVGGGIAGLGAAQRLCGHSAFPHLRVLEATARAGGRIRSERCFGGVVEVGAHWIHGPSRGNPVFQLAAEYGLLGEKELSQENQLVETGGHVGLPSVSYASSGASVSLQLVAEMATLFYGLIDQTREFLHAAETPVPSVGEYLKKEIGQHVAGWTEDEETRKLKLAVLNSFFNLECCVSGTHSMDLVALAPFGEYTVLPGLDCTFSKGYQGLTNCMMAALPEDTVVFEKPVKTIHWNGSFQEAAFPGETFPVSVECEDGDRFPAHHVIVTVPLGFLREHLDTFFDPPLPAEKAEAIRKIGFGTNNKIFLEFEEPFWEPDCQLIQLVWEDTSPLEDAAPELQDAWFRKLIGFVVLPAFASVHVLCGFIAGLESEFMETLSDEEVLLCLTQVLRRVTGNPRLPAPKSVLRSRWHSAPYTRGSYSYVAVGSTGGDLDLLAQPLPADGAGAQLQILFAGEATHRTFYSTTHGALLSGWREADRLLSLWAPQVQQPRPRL
- test: Human PAOX assay (HyPerBlu chemiluminescent detection of hydrogen peroxide)
- assay-context: 60 pM recombinant PAOX, 20 μM N-acetylspermine substrate
value-type: IC50 (µM)
Your answer is read as µM, so omit the unit and give the number.

>>> print(df.to_string())
                         compound_structure  value_type  unit_of_measure  endpoint_result
0  N#Cc1cccc(-c2cc(-c3ccccc3)nc3cc(C(=O)NCCCn4ccnc4)nn23)c1        IC50               µM            0.879
1  Cc1c(C(=O)NC2CN(C)C2)nn2c(-c3ccccc3)cc(-c3ccccc3)nc12        IC50               µM             3.13
2  CN1CCC(NC(=O)c2cc3nc(-c4ccccc4)cc(-c4ccccc4)n3n2)CC1        IC50               µM             10.4

Asked: Form entry - test system: hPAOX (Homo sapiens (Human), UniProt Q6QHF9); read-out: IC50; compound: `CN1CC(C)(NC(=O)c2cc3nc(-c4ccccc4)cc(-c4ccccc4)n3n2)C1`
Given back: 6.78
